Numbers sourced from patent US8846951B2.

Collected pEC50 values appear next to each entry.
Target: 5HT2C receptors (Homo sapiens, UniProt P28335)
Sequence (P28335 33-458): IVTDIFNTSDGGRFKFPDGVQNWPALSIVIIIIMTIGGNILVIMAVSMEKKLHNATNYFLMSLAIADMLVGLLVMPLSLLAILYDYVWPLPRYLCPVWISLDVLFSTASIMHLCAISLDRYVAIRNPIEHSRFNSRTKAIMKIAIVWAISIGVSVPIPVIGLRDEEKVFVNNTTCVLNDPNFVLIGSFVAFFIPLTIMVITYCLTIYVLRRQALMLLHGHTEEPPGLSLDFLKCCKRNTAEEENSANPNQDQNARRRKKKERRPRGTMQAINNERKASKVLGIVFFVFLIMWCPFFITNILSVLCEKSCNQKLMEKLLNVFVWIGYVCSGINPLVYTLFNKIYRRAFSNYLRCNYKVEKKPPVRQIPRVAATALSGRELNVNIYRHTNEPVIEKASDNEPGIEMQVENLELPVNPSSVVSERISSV
Test: Human 5-HT2C functional high throughput screening assay in CHO-K1 cells (calcium flux)
Assay type: cell-based
Set-up: expressed in transfected cells; host or cells: CHO-K1 cells
Details: 5-HT2C agonist activity; CHO-K1 cells; calcium flux; read-out: EC50
pEC50: −log10 of the molar value.
VALUE_TYPE: pEC50

                                   molecule                               test_system  observed_measurement
0  c1ccc(-c2ccc3c(c2)[C@H]2CNC[C@@H]2CCO3)cc1 (relative stereo)  5HT2C receptors (Homo sapiens, UniProt P28335)                  6.22
1  CN1C[C@@H]2CNC(=O)c3cc(OCc4ccc(F)cc4)ccc3[C@H]2C1  5HT2C receptors (Homo sapiens, UniProt P28335)                  8.70
2  COc1ccc(-c2ccc3c(c2)C(=O)NC[C@H]2CN(C)C[C@H]32)cc1  5HT2C receptors (Homo sapiens, UniProt P28335)                  9.22
3  CN1C[C@H]2CNC(=O)c3cc(-c4ccc5c(c4)OCC5)ccc3[C@@H]2C1 (relative stereo)  5HT2C receptors (Homo sapiens, UniProt P28335)                  8.52
4  C[C@H](Cc1ccccc1)Oc1ccc2c(c1)C(=O)NC[C@H]1CNC[C@H]21  5HT2C receptors (Homo sapiens, UniProt P28335)                  8.00
5  CCS(=O)(=O)c1cccc(-c2ccc3c(c2)C(=O)NC[C@@H]2CN(C)C[C@@H]32)c1 (relative stereo)  5HT2C receptors (Homo sapiens, UniProt P28335)                  7.52
6  CC(C)c1ccc(-c2ccc3c(c2)C(=O)NC[C@@H]2CN(C)C[C@@H]32)cc1 (relative stereo)  5HT2C receptors (Homo sapiens, UniProt P28335)                  7.00

* * *

Collected Emax values appear next to each entry.
Target: 5HT2C receptors (Homo sapiens, UniProt P28335)
Sequence (P28335 33-458): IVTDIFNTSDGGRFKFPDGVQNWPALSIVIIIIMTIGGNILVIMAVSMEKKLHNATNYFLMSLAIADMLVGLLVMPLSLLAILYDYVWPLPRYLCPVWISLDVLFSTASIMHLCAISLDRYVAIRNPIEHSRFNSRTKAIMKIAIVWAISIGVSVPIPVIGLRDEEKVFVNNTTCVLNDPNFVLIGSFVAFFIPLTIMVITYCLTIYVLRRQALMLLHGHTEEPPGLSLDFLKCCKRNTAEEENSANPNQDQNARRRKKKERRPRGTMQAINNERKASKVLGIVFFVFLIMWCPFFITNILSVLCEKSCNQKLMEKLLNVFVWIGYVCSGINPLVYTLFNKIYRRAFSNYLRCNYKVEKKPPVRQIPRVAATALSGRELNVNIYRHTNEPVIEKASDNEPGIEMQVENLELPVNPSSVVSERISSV
Assay: Human 5-HT2C functional high throughput screening assay in CHO-K1 cells (calcium flux)
Format: cell-based
Parameters: expressed in transfected cells; host or cells: CHO-K1 cells
Conditions: CHO-K1; 5-HT2C; maximum functional response as percentage relative to the effect of serotonin; read-out: Emax
VALUE_TYPE: Emax (%)

In [3]: df
Out[3]:
                                   compound  readout_qualifier  observed_measurement
0  CNC(=O)c1cccc(-c2ccc3c(c2)C(=O)NC[C@@H]2CNC[C@@H]32)c1 (relative stereo)                  =                   105
1  CN1C[C@H]2CNC(=O)c3cc(C=Cc4ccccc4)ccc3[C@@H]2C1 (relative stereo)                  =                   100
2  COc1ccc(-c2ccc3c(c2)C(=O)NC[C@@H]2CN(C)C[C@@H]32)cc1F (relative stereo)                  =                    80
3  CN1C[C@H]2CN(C)C(=O)c3cc(-c4cccc(CCO)c4)ccc3[C@@H]2C1 (relative stereo)                  =                   120
4  c1ccc(-c2ccc3c(c2)OCC[C@H]2CNC[C@H]32)cc1 (relative stereo)                  =                   110
5  O=C1NC[C@@H]2CN(Cc3ccccc3)C[C@H]2c2cccc(OC(F)(F)F)c21 (relative stereo)                  >                   120
6  COc1ccc(-c2ccc3c(c2)C(=O)NC[C@H]2CN(C)C[C@H]32)c(F)c1                  =                    90
